meta.source: patent US11464770B2

test system: bladder cancer cell lines; assay: Cell based assay, cell viability (CellTiter-Glo), bladder cancer cell lines; settings: Homo sapiens, T-24; T24 cells; 72 hours treatment; 0 to 2 μM; CellTiter-Glo; read-out: IC50, bladder cancer cell line T24
Measurement name: IC50 (nM)

>>> result_value("CC(=O)c1c([S+]([O-])Cc2ccc(C(F)(F)F)nc2C)[nH]c2c(Br)ccc(Cl)c2c1=O (stereo not shown)")
1030
>>> result_value("CC(=O)c1c([S+](C)[O-])[nH]c2c(Br)ccc(Cl)c2c1=O (stereo not shown)")
1340

###

tested on: pancreatic cancer cell lines (e.g. MIA PaCa-2); assay: Cell based assay, cell viability (CellTiter-Glo), pancreatic cancer cell lines; details: Homo sapiens, pancreatic cancer cell line PANC-1, 72 hours, read-out: IC50, PANC-1
Items are presented alongside their recorded IC50.
Measurement name: IC50

>>> result_value("CC(=O)c1c([S+]([O-])Cc2ccc(C(F)(F)F)nc2C)[nH]c2c(Br)ccc(Cl)c2c1=O (stereo not shown)")
"> 2000 nM"
>>> result_value("COc1ccccc1Sc1[nH]c2c(Br)ccc(Cl)c2c(=O)c1C(C)=O")
"> 2000 nM"
>>> result_value("O=C(c1c([S+]([O-])Cc2ccc(SC(F)(F)F)cc2)[nH]c2c(Br)ccc(Cl)c2c1=O)C1CC1 (stereo not shown)")
"> 2000 nM"
>>> result_value("CC(=O)c1c([S+]([O-])Cc2ccc(C(F)(F)F)o2)[nH]c2c(F)ccc(F)c2c1=O (stereo not shown)")
"> 2000 nM"

###

system: blood cancer cell lines (e.g. HL-60, Jurkat, Raji, Ramos, Daudi, MOLT-4); experiment: Cell based assay, cell viability (CellTiter-Glo), blood cancer cell lines; details: Homo sapiens, blood cancer cell line Daudi, 72 hours, read-out: IC50, Daudi
Measurement name: IC50

>>> result_value("CC(=O)c1c([S+]([O-])Cc2ccc(F)c(Cl)c2)[nH]c2c(Br)ccc(Cl)c2c1=O (stereo not shown)")
"1650 nM"
>>> result_value("Cc1cc(C[S+]([O-])c2[nH]c3c(Cl)ccc(Cl)c3c(=O)c2C(=O)c2ccccc2)no1 (stereo not shown)")
"> 2000 nM"
>>> result_value("CSc1c(C(C)=O)c(=O)c2c(Cl)ccc(Br)c2n1S(=O)(=O)c1ccc(Cl)cc1")
"> 2000 nM"
>>> result_value("CC(=O)c1c(SCc2ccccc2)n(C(=O)c2ccc(Br)cc2)c2c(Br)ccc(Cl)c2c1=O")
"> 2000 nM"
>>> result_value("CC(=O)c1c([S+]([O-])Cc2ccc(C(=O)c3ccccc3)cc2)[nH]c2c(Br)ccc(Cl)c2c1=O (stereo not shown)")
"> 2000 nM"
>>> result_value("O=C(c1ccccc1)c1c([S+]([O-])Cc2ccc(S(F)(F)(F)(F)F)cc2)[nH]c2c(F)ccc(F)c2c1=O (stereo not shown)")
"> 2000 nM"
>>> result_value("Cc1cc(C[S+]([O-])c2[nH]c3c(Br)ccc(Cl)c3c(=O)c2C(=O)C(C)C)no1 (stereo not shown)")
"640 nM"

###

Catalogue of molecules with associated IC50
tested on: colorectal cancer cell lines (e.g. DLD-1, HCT 116, SW620, HCT-15, HCT-8, RKO); experiment: Cell based assay, cell viability (CellTiter-Glo), colorectal cancer cell lines; conditions: Homo sapiens, SW-620, SW620, 72 hours treatment, read-out: IC50, colorectal cancer cell line SW620
Measurement name: IC50

>>> result_value("CC(=O)c1c([S+]([O-])c2ccc(Br)cc2)[nH]c2c(Br)ccc(Cl)c2c1=O (stereo not shown)")
"> 2000 nM"
>>> result_value("CC(=O)c1c([S+](C)[O-])n(S(=O)(=O)C(F)(F)F)c2c(Br)ccc(Cl)c2c1=O (stereo not shown)")
"> 2000 nM"
>>> result_value("CC(=O)c1c([S+]([O-])Cc2cccc(S(F)(F)(F)(F)F)c2)[nH]c2c(Br)ccc(Cl)c2c1=O (stereo not shown)")
"1680 nM"
>>> result_value("CC(=O)c1c([S+](C)[O-])n(Cc2ccc(F)c(Cl)c2)c2c(Br)ccc(Cl)c2c1=O (stereo not shown)")
"> 2000 nM"
